- procedure.text: probe aXIP binding to arrayed compounds – biochemical, NeuroSMM set, 635/667 nm fluorescence, primary screen (AID 1119);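 also: probe is the protein aXip251-270 applied at 1 µg/mL to compound-printed slides; binding of probe to printed compounds measured as 667 nm fluorescence plus signal to noise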
- measurement.context: small-molecule microarray, higher = more signal, called active from +8 up or from −8 down
The source made the active and inactive calls.
The entries below come with measured composite Z-score values attached.

Example compounds with recorded composite Z-score:
// query Which composite Z-score is listed for O=C(NCC(O)CO)[C@@]1(Cc2ccccc2)N=C(c2ccc(OCCCO)cc2)O[C@H]1c1ccccc1 (stereo not given in full) ?
// result 0.805 (inactive)

// query How about `COCCCNC(=O)[C@@]1(Sc2ccc(C)cc2)CC(=O)N(Cc2ccccc2)[C@@H]1c1ccc(CO)cc1` ?
// result 0.201 (inactive)

// query Please answer likewise for `COc1ccc(C#Cc2ccc3c(c2)[C@]2(C(=O)N3)[C@H](C(=O)N3CCc4cc(OC)c(OC)cc4C3)[C@H]3C(=O)O[C@H](c4ccccc4)[C@H](c4ccccc4)N3[C@@H]2c2ccc(OCCO)cc2)cc1`
// result 0.289 (inactive)

---
// query Given the compound `CC[C@@H]1C=C(C(=O)O)[C@H](c2ccc(C(C)C)cc2)N1S(=O)(=O)c1ccc(C)cc1` , what is its reported composite Z-score?
// result 1.1 (inactive)

// query Query O=C1NC(=O)C2C1C=CC(C(O)c1cccs1)N2Nc1ccccn1 (stereo not given) next
// result 0.32 (inactive)

// query Next up: `NC(=O)NCC#Cc1ccc2c(c1)[C@]1(C(=O)N2)[C@H](c2ccc(O)cc2)N2[C@H](c3ccccc3)[C@H](c3ccccc3)OC(=O)[C@H]2[C@@H]1C(=O)N1CCN(c2ncccn2)CC1`
// result 1.24 (inactive)

// query Another compound: C=CCC(OC(C)=O)[C@@H]1[C@@H](N(Cc2ccc(-c3ccccc3)cc2)C(=O)c2ccc(C)cc2)c2cc(OCCCO)ccc2N1C(=O)c1ccc2ccccc2n1 (stereo not given in full)
// result -0.181 (inactive)

// query Item: `O=C(CS)NCCCCCNC(=O)[C@H]1C[C@H]2C(=O)N[C@@H](Cc3ccccc3)C(=O)N2[C@H]1c1cccc(OCCO)c1`
// result 0.482 (inactive)

// query Another compound: `C=C(/C(=C/C[C@@H](OC(C)=O)c1ccc(CO)o1)c1cnc2ccccc2c1)C(C)C`
// result 1.64 (inactive)

// query Next entry: `COc1cc(CO)cc(I)c1O[C@H]1C=C(C(=O)NCCO)C[C@@H](N(CCc2cccc(F)c2)C(=O)CCC2CCCC2)[C@@H]1O`
// result 0.687 (inactive)

// query How about CN1C(=O)C2C(C1=O)C1C=C(c3ccc(CO)cc3)C2C(C2CC2)N1Cc1cc2c(cc1Br)OCO2 (stereo not given) ?
// result 1.55 (inactive)

// query What do you get for O=C(NCC(O)CO)[C@]1(CCS(=O)(=O)c2ccccc2)N=C(c2ccc(OCCCO)cc2)O[C@@H]1c1ccccc1 (stereo not given in full) ?
// result -0.262 (inactive)

// query Do the same for `C[N+](C)(C)CCCC[C@@H]1NC(=O)[C@@H]2C[C@H](C(=O)NCCCCCCNC(=O)CS)[C@H](c3cccc(OCCO)c3)N2C1=O` please
// result 0.802 (inactive)

// query What about `COCCOC(=O)N1C(=O)[C@@]2(c3ccccc31)[C@H](C(=O)N1CCCCCCC1)[C@H]1C(=O)O[C@H](c3ccccc3)[C@H](c3ccccc3)N1[C@@H]2c1ccccc1OCCO` ?
// result 3.89 (inactive)

// query Next record, please: Cn1c2c(c3ccccc31)C(=O)C1NC2C=CC1(C)C(=O)OCc1ccccc1 (stereo not given)
// result -0.0597 (inactive)

Provenance of the data: PubChem BioAssay
